Entry source: patent US20190100534A1

- System: Pseudomonas aeruginosa PA-RR-(980151052)
- test: MIC determination
- Format: cell-based
- protocolConditions: Pseudomonas aeruginosa; PA-RR-(980151052); CAMH broth, 20 μM Apo-Transferrin, 37° C., 18 hours; read-out: Minimum Inhibitory Concentrations, PA-RR-(980151052)
Record form. Attribute: MIC. Fill in for each entry.
Give bare numbers, in µg/mL.

// input: 3 compounds below; output: MIC for each
1. CC(C)(O/N=C(\C(=O)N[C@@H]1C(=O)N2C(C(=O)O)=C(C=Cc3ccc(C[N+]4(C)Cc5c(Cl)c(O)c(O)c(Cl)c5C4)cc3)CS[C@H]12)c1csc(N)n1)C(=O)O (mixture of isomers)
2. CC(C)(O/N=C(\C(=O)N[C@@H]1C(=O)N2C(C(=O)O)=C(C=Cc3ccc(C[N+]4(C)CCc5cc(O)c(O)cc5C4)cc3)CS[C@H]12)c1csc(N)n1)C(=O)O (mixture of isomers)
3. CC(C)(O/N=C(\C(=O)N[C@@H]1C(=O)N2C(C(=O)O)=C(C=Cc3ccc(C[n+]4cccc(-c5ccc(O)c(O)c5)c4)cc3)CS[C@H]12)c1csc(N)n1)C(=O)O (mixture of isomers)

[reply]
[0.25, 0.06, 4]

MIC measured on CC(C)(O/N=C(\C(=O)N[C@@H]1C(=O)N2C(C(=O)O)=C(C=Cc3ccc(C[N+](C)(C)Cc4ccc(O)c(O)c4Cl)cc3)CS[C@H]12)c1csc(N)n1)C(=O)O (mixture of isomers) = 4

====

Kindly supply the reported MIC values for the records listed here.
- Test system: E. coli J53 Alone
- test: MIC determination, isogenic E. coli strains
- Format: cell-based
- protocolConditions: Escherichia coli, J53ALONE, 18 h, read-out: Mimimum Inhibitory Concentrations, J53 Alone

| compound | assayedTarget | MIC |
| --- | --- | --- |
| CC(C)(O/N=C(\C(=O)N[C@@H]1C(=O)N2C(C(=O)O)=C(C=Cc3ccc(C[N+]4(C)Cc5c(Cl)c(O)c(O)c(Cl)c5C4)cc3)CS[C@H]12)c1csc(N)n1)C(=O)O (mixture of isomers) | E. coli J53 Alone | ≤ 0.06 µg/mL |

Provide MIC values for the following items, in order.
1. CC(C)(O/N=C(\C(=O)N[C@@H]1C(=O)N2C(C(=O)O)=C(C=Cc3ccc(C[n+]4ccc(-c5ccc(O)c(O)c5)cc4)cc3)CS[C@H]12)c1csc(N)n1)C(=O)O (mixture of isomers)
2. CC(C)(O/N=C(\C(=O)N[C@@H]1C(=O)N2C(C(=O)O)=C(C=Cc3ccc(C[N+]4(C)Cc5cc(O)c(O)c(Cl)c5C4)cc3)CS[C@H]12)c1csc(N)n1)C(=O)O (mixture of isomers)

[reply]
1. ≤ 0.06 µg/mL
2. ≤ 0.06 µg/mL

I'm hoping you can list MIC for every compound here, please.
1. CC(C)(O/N=C(\C(=O)N[C@@H]1C(=O)N2C(C(=O)O)=C(C=Cc3ccc(C[N+]4(C)CCc5c(Cl)c(O)c(O)c(Cl)c5C4)cc3)CS[C@H]12)c1csc(N)n1)C(=O)O (mixture of isomers)
2. CC(C)(O/N=C(\C(=O)N[C@@H]1C(=O)N2C(C(=O)O)=C(C=Cc3ccc(C[n+]4ccc(NC(=O)c5ccc(O)c(O)c5)cc4)cc3)CS[C@H]12)c1csc(N)n1)C(=O)O (mixture of isomers)

[reply]
["≤ 0.06 µg/mL", "≤ 0.06 µg/mL"]
